system: THP-1 viability, CellTiter-Glo luminescence, 72 h; experiment: THP-1 cell cytotoxicity, dose response, cytotoxicity control for Salmonella PhoP regulon inhibitors, S. typhimurium screen hits (AID 2253)
pEC50: −log10 of the molar value.
pEC50 of 5 or higher: met. Under 5: not met.

Request: Quick check: does `O=c1c(Br)c(Br)cnn1-c1ccccc1` have pEC50 greater than or equal to 5?
Result: met

Request: Does the reported pEC50 for `O=C(Nc1ccc(Cl)c(Cl)c1)Nc1ccccc1O` fall at or above the 5 mark?
Result: not met

Request: Does the reported pEC50 for `O=C(N/N=C/c1ccc(Sc2ccccn2)o1)c1cc2ccccc2cc1O` fall at or above the 5 mark?
Result: not met

Request: Is pEC50 at least 5? Consider `O=S(=O)(Nc1cc(Sc2ncn[nH]2)c(O)c2ccccc12)c1ccccc1`
Result: met

Request: Does CCCCCCCNC(=O)C1(CC2CC(c3ccc(Cl)cc3)=NO2)CCNCC1 (stereo unspecified) have a reported pEC50 of at least 5?
Result: met

Request: Answer whether pEC50 of `O=C(CSc1ccccn1)N/N=C/c1cc([N+](=O)[O-])ccc1O` is greater than or equal to 5.
Result: not met

Request: Hi team, for CCCC(=O)NC(c1ccc(Cl)cc1)c1ccc2cccnc2c1O (stereo unspecified) , is the recorded pEC50 at or above 5?
Result: met

Request: Item `CCN(CC)c1ccc(/C=N/Nc2nc3ccccc3[nH]2)c(O)c1` with pEC50 of 5 or above?
Result: met

Request: Quick check: does `CCC(C)(C)c1ccc(OCCCC[n+]2ccccc2)c(C(C)(C)CC)c1` have pEC50 greater than or equal to 5?
Result: met

Request: Test whether the compound `Cc1ccc(S(=O)(=O)Nc2cc(Cl)c(O)c3ncccc23)cc1` records pEC50 of 5 or higher.
Result: met

Request: Answer whether pEC50 of CC(=O)NC(c1ccc2ccccc2c1)c1ccc2cccnc2c1O (stereo unspecified) is greater than or equal to 5.
Result: met

Request: Kindly determine if pEC50 recorded for CCCCCC(CC(=O)NO)C(=O)NC(C(=O)N1CCCC1CO)C(C)C (stereo unspecified) is above or exactly 5.
Result: not met

Request: Does the compound `C(=Nc1ccc(Nc2ccccc2)cc1)c1ccc2ccccc2c1` have recorded pEC50 that is 5 or more?
Result: not met

Request: Could you tell me if the measured pEC50 of `CCCCCc1ccc(OCCC[n+]2ccccc2)c(CCCCC)c1` reaches 5 or more?
Result: met

Request: Check if pEC50 >= 5 (inclusive). Item: `COc1cccc(/C=N/n2c(C)nc3ccccc3c2=O)c1O`
Result: not met

Request: Would you say `COc1ccccc1-n1c(SCc2cc(=O)oc3cc(O)ccc23)nc2ccccc2c1=O` shows pEC50 at minimum 5?
Result: not met

Request: Hello, I need to know if `O=c1c2c(-c3ccccc3)csc2nc2c3ccccc3c(NCCN3CCOCC3)nn12` has measured pEC50 not below 5. Thanks!
Result: met

Request: Say whether `C#CCOCCOCCOCCNc1nc(N2CCN(C(=O)CCCCCCCCCCNC(=O)[C@H](CCCCN)n3cc(C[C@@H](C)CC)nn3)CC2)nc(N2CCN(C(=O)CCCCCCCCCCNC(=O)[C@H](CCCN=C(N)N)n3cc(C[C@@H](C)CC)nn3)CC2)n1` shows pEC50 of 5 or more.
Result: met

Hello, the source for this data is PubChem BioAssay AID2253, in case you need it.
